TESTED ON: Human full-length SHP2 recombinant protein (Homo sapiens (Human), UniProt Q06124)
ASSAY NOTES: Assay of full-length SHP2 phosphatase activity
STUDY CONDITIONS: DiFMUP substrate, with activating peptide
READOUT LABEL: IC50 (nM)

Below are worked cases with known answers.
CNC(=O)C#Cc1ccc2c(c1)[C@@H](N)C1(CCN(c3ncc(Sc4ccnc(N)n4)nc3C)CC1)C2 [Compound 233]	1.1
CCNC(=O)C#Cc1ccc2c(c1)[C@@H](N)C1(CCN(c3cnc(Sc4ccnc(N)c4Cl)c(C#N)n3)CC1)C2 [Compound 272]	17
CNC(=O)C#Cc1ccc2c(c1)[C@@H](N)C1(CCN(c3ncc(Sc4ccnc(N)c4Cl)nc3C)CC1)C2 [Compound 232]	2
NC(=O)C#Cc1ccc2c(c1)[C@@H](N)C1(CCN(c3ncc(Sc4ccnc(N)c4Cl)c4nccn34)CC1)C2 [Compound 128]	0.9

[I] CCNC(=O)C#Cc1ccc2c(c1)[C@@H](N)C1(CCN(c3cnc(Sc4ccnc(N)c4Cl)c(N)n3)CC1)C2 [Compound 226]
[II] CNC(=O)C#Cc1ccc2c(c1)[C@@H](N)C1(CCN(c3cnc(Sc4cccnc4C(F)(F)F)cn3)CC1)C2 [Compound 242]
// compare measured IC50, left I , right II , return larger Respond with the label that goes with your answer. I
